All figures here come from the supplement of paper PMC11865577.

- System: TO-3-N3 (biotin conjugate)
- PROCEDURE_SUMMARY: pull-down binding Z-score (relative to library population); higher = stronger binding
- CONDITION_PARAMETERS: RNA library: Library-2
pull-down binding Z-score of 0.5 or higher: 1. Under 0.5: 0.

# bool: pull-down binding Z-score of `UAUGAGGUUUAGAAGAGCUUUUGGUGAAUACAGUCAUGUAGUUGCCUUUAAUACUUUACUAUUCCUUAUG` >= 0.5
0

Determine whether this sequence has pull-down binding Z-score no lower than 0.5: GGGUAGGGUUUGGGGGAGAGUGUGGGCUGGGGUUCAGGGACA [pre-miRNA-1229_SNP_FL]
1

Form field: pull-down binding Z-score at least 0.5? Entry: `GGCUUCAUUUAAUUAUUUGAAGUC`
0

Does GAGUGAGGCCCAGUGGUCACCGCCGCCCUC [hsa-mir-4754] have a reported pull-down binding Z-score of at least 0.5?
1

hey, is pull-down binding Z-score for this one >= 0.5? CGUGCAAGUUUAAGUUUUUGCACG [hsa-mir-4445]
0
